Kindly supply the reported TGI values for the records listed here.
Tested on: HCC-2998 colon
PROTOCOL TEXT: NCI tumour cell line growth inhibition, 48 h

Guide cases for TGI, answers given:
COMPOUND: CC(=O)N1N=C(c2ccc(C)cc2)CC1c1cn(-c2ccccc2)nc1-c1cccc(Nc2ccnc3cc(Cl)ccc23)c1 (centres undefined)
TGI: > 100 µM

COMPOUND: COC(=O)[C@H](Cc1ccccc1)NC(=O)N(CCNC(=O)OC(C)(C)C)c1ccccc1
TGI: > 100 µM

COMPOUND: CCOc1ccc2c(c1)C(=O)c1c-2n(CCCN=[N+]=[N-])c(=O)c2cc([N+](=O)[O-])ccc12
TGI: > 100 µM

COMPOUND: NC1(C(=O)N[C@@H](CCO)c2ccc(Cl)cc2)CCN(c2ncnc3[nH]ccc23)CC1
TGI: > 100 µM

Could you tell me TGI for each of these compounds? They are listed below.
1. CON[N+]([O-])=NC(C)C
2. C=C1CN2CCc3c([nH]c4ccccc34)C2CC1CC(=O)N(C)C (centres undefined)
3. CCN(CC)CC(O)c1cc(-c2ccc(Cl)cc2)nc2c(C)c(Cl)ccc12 (centres undefined)

A.
1. > 100 µM
2. > 309 µM
3. 3.23 µM

// each compound listed below needs its TGI
1. COc1ccc(-c2cc(=O)c3cc(O)ccc3o2)c(OC)c1OC
2. NS(=O)(=O)c1ccc(NC(=O)c2ccc3nc4ccccc4c(Nc4ccc(S(N)(=O)=O)cc4)c3c2)cc1

A.
> 100 µM
> 100 µM
